The values you see were collected from PubChem BioAssay.

- TARGET OR SYSTEM: Alpha-2C adrenergic receptor (Homo sapiens)
- TEST DESCRIPTION: compounds altering alpha2C-coupled GIRK flux – cell-based, HEK293 alpha2C/GIRK1/2, thallium flux, primary screen (AID 624);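 note: slope of fluorescence ratio to pre-addition baseline per second over 15 to 24 s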
- SETTINGS: thallium flux BTC fluorescence, at 10 µM, actives lie on both sides
QUANTITY MEASURED: slope
In your answer, state the number alone without any accompanying words.

Form: item "Cc1ccc(-c2cc(C(=O)Nc3cc(C)on3)c3ccccc3n2)c(C)c1" ; test system Alpha-2C adrenergic receptor (Homo sapiens); slope: 0.00596

Form: item "CCOC(=O)c1ccc(NS(=O)(=O)c2cccc3nsnc23)cc1" ; test system Alpha-2C adrenergic receptor (Homo sapiens); slope: 0.00792

Form: item CN(C1CCS(=O)(=O)C1)S(=O)C12CC3CC(CC(C3)C1)C2 (stereo not given) ; test system Alpha-2C adrenergic receptor (Homo sapiens); slope: 0.00528

Form: item "CCN(CC)CCNC(=O)c1ccc(N2CCCCC2)c(NS(=O)(=O)c2ccc(C)cc2)c1" ; test system Alpha-2C adrenergic receptor (Homo sapiens); slope: 0.00347

Form: item "CCOc1ccc(C(=O)CN2CCN(S(=O)(=O)c3ccc(OC)cc3)CC2)cc1" ; test system Alpha-2C adrenergic receptor (Homo sapiens); slope: 0.00338

Form: item "Cc1cc(Oc2ccccc2)nc(-c2ccccc2)n1" ; test system Alpha-2C adrenergic receptor (Homo sapiens); slope: 0.00573

Form: item "CCCc1nnc(SCC(=O)N2CCOCC2)n1Cc1ccco1" ; test system Alpha-2C adrenergic receptor (Homo sapiens); slope: 0.0036

Form: item "COc1ccc(-c2noc(-c3ccccc3C(=O)Nc3cccnc3)n2)cc1OC" ; test system Alpha-2C adrenergic receptor (Homo sapiens); slope: 0.00579

Form: item "CC(=O)N(CCN(C(C)=O)c1ccccc1)c1ccccc1" ; test system Alpha-2C adrenergic receptor (Homo sapiens); slope: 0.00518

Form: item "CCOC(=O)CSc1nnc(-c2ccccc2OC)o1" ; test system Alpha-2C adrenergic receptor (Homo sapiens); slope: 0.00552

Form: item "O=S(=O)(NCc1cn2ccccc2n1)c1cc(F)ccc1F" ; test system Alpha-2C adrenergic receptor (Homo sapiens); slope: 0.00441

Form: item "COc1ccccc1C(=O)Nc1ccc(S(=O)(=O)N2CCCC2)cc1" ; test system Alpha-2C adrenergic receptor (Homo sapiens); slope: 0.0037

Form: item O=S(=O)(c1ccc(S(=O)(=O)N2CCN3CCCC3C2)cc1)N1CCCC1 (stereo not given) ; test system Alpha-2C adrenergic receptor (Homo sapiens); slope: 0.00601

Form: item "CC(=O)Nc1cccc(NC(=O)c2oc3ccccc3c2C)c1" ; test system Alpha-2C adrenergic receptor (Homo sapiens); slope: 0.00572

Form: item "Oc1cc(NCc2cccnc2)ccc1-c1nc2ccccc2o1" ; test system Alpha-2C adrenergic receptor (Homo sapiens); slope: 0.00562

Form: item "COc1cccc(-c2nc(CS(=O)(=O)CC(=O)N3CCN(c4ccccn4)CC3)c(C)o2)c1" ; test system Alpha-2C adrenergic receptor (Homo sapiens); slope: 0.00682

Form: item CCOC(=O)C1(C)NC(c2ccc(OC)c(OC)c2)C2C(=O)N(CC)C(=O)C21 (stereo not given) ; test system Alpha-2C adrenergic receptor (Homo sapiens); slope: 0.00547

Form: item "CCOc1ccc(N(CC(=O)Nc2cccc(OC)c2)S(=O)(=O)c2c(C)noc2C)cc1" ; test system Alpha-2C adrenergic receptor (Homo sapiens); slope: 0.00799

Form: item C/C=C/COC(=O)c1[nH]c2c(c1C)C(=O)CC(c1ccc(N(C)C)cc1)C2 (stereo not given) ; test system Alpha-2C adrenergic receptor (Homo sapiens); slope: 0.00679

Form: item "O=C(c1cnn2c(C(F)(F)F)cc(-c3ccco3)nc12)N1CCc2ccccc2C1" ; test system Alpha-2C adrenergic receptor (Homo sapiens); slope: 0.00417

Form: item CC(=O)NC(=O)NC1CSCC1OC(C)=O (stereo not given) ; test system Alpha-2C adrenergic receptor (Homo sapiens); slope: 0.00811

Form: item "O=C(Nc1cccnc1)c1ccc2c(c1)C(=O)N(Cc1cccnc1)C2=O" ; test system Alpha-2C adrenergic receptor (Homo sapiens); slope: 0.00348

Form: item "O=c1cc(CSc2ccccn2)c2ccccc2[nH]1" ; test system Alpha-2C adrenergic receptor (Homo sapiens); slope: 0.00572

Form: item Nc1nc2n(n1)C(c1cccc(Br)c1)CC(c1ccccc1)N2 (stereo not given) ; test system Alpha-2C adrenergic receptor (Homo sapiens); slope: 0.00794

Form: item Cc1nc2ccc(S(=O)(=O)NC(C(=O)NCc3cccs3)C(C)C)cc2s1 (stereo not given) ; test system Alpha-2C adrenergic receptor (Homo sapiens); slope: 0.00687

Form: item "CCSc1ccccc1C(=O)Nc1cccc(OC)c1" ; test system Alpha-2C adrenergic receptor (Homo sapiens); slope: 0.00513

Form: item COCCOC(=O)c1[nH]c2c(c1C)C(=O)CC(c1ccc(N(C)C)cc1)C2 (stereo not given) ; test system Alpha-2C adrenergic receptor (Homo sapiens); slope: 0.00456

Form: item COC(=O)Cn1c(=O)c2c(nc3n2CC(C)CN3c2ccc(C)c(C)c2)n(C)c1=O (stereo not given) ; test system Alpha-2C adrenergic receptor (Homo sapiens); slope: 0.00607

Form: item "Cn1c(SCc2c(F)cccc2Cl)nnc1-c1cccs1" ; test system Alpha-2C adrenergic receptor (Homo sapiens); slope: 0.00484

Form: item "COc1ccc(S(=O)(=O)N2CN(Cc3ccco3)c3nc4ccccc4nc32)cc1" ; test system Alpha-2C adrenergic receptor (Homo sapiens); slope: 0.00619

Form: item O=C1C2ON(c3ccc(Cl)cc3)C(c3ccco3)C2C(=O)N1c1ccccc1 (stereo not given) ; test system Alpha-2C adrenergic receptor (Homo sapiens); slope: 0.00581

Form: item "O=C(CSc1ncc(-c2ccc(F)cc2)[nH]1)N1CCCCC1" ; test system Alpha-2C adrenergic receptor (Homo sapiens); slope: 0.00631

Form: item "CC1(C)CNC(=O)CC(C)(C)N1O" ; test system Alpha-2C adrenergic receptor (Homo sapiens); slope: 0.00315

Form: item "Cc1cc(C)nc(SCC(=O)Nc2ccc(S(=O)(=O)Nc3nccs3)cc2)n1" ; test system Alpha-2C adrenergic receptor (Homo sapiens); slope: 0.00544

Form: item "Cc1cc(NCCN2CCCCC2)n2c(nc3ccccc32)c1C#N" ; test system Alpha-2C adrenergic receptor (Homo sapiens); slope: 0.0039

Form: item CC(=O)c1sc(NC(=O)C2COc3ccccc3O2)nc1C (stereo not given) ; test system Alpha-2C adrenergic receptor (Homo sapiens); slope: 0.00774

Form: item "O=C(Oc1ccccc1)c1cccc(COC(=O)c2cnccn2)c1" ; test system Alpha-2C adrenergic receptor (Homo sapiens); slope: 0.00507

Form: item CC1CCCN(C(=O)c2cc3c(-c4ccc(Cl)cc4)nn(C)c3s2)C1 (stereo not given) ; test system Alpha-2C adrenergic receptor (Homo sapiens); slope: 0.00725

Form: item CCCC(c1nnnn1Cc1ccc(OC)cc1)N1CCN(c2ccccc2OC)CC1 (stereo not given) ; test system Alpha-2C adrenergic receptor (Homo sapiens); slope: 0.00492

Form: item "Cn1c(SCc2nc3ccccc3c(=O)[nH]2)nnc1-c1ccco1" ; test system Alpha-2C adrenergic receptor (Homo sapiens); slope: 0.00622

Form: item Cc1ccc(N2C(=O)c3ccccc3C2Nc2cccnc2)nc1 (stereo not given) ; test system Alpha-2C adrenergic receptor (Homo sapiens); slope: 0.0064

Form: item "CCC(=O)N1CCc2cc(S(=O)(=O)CCC(=O)Nc3ccc(F)c(F)c3)ccc21" ; test system Alpha-2C adrenergic receptor (Homo sapiens); slope: 0.00293

Form: item "O=C(COc1ccccc1F)NC1CC1" ; test system Alpha-2C adrenergic receptor (Homo sapiens); slope: 0.0037

Form: item "Cc1cccc(-n2ncc3c(NCCCn4ccnc4)ncnc32)c1" ; test system Alpha-2C adrenergic receptor (Homo sapiens); slope: 0.00546

Form: item CC(NC(=O)c1cn(C)c2ccc(S(=O)(=O)N3CCCC3)cc2c1=O)c1ccc2c(c1)OCCO2 (stereo not given) ; test system Alpha-2C adrenergic receptor (Homo sapiens); slope: 0.00703
